Entry source: patent US20230272097A1

- SYSTEM: T1, canine OX40L, full length membrane form, expressed on the cell surface (HEK293 or MEF cells stably … (canine (dog, beagle)))
- T1 construct: The same protein is used on HEK293 and on MEF cells; also called HEK-OX40L; OX40L expressing HEK293 cells
- T1 chain: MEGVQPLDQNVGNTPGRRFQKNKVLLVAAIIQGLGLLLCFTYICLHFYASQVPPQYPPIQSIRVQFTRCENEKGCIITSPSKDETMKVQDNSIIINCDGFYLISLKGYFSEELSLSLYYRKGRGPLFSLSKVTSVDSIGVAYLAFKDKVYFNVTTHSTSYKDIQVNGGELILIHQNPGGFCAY
- METHOD: flow cytometry titration on MEF cells expressing OX40L; Kd (EC50) from GeoMean vs concentration, Prism four parameter fit
MEASURED_PARAMETER: Kd (nM)
Report the value in nM with no unit label.

Answered cases to consult:
BINDER	Kd [nM]
PMX019 (antibody, V domains shown, Canine variable regions; also called PMX19) VH: EVQLVESGGDLVKPGGSLRLSCVASGFTFSSNYMSWIRQAPGKGLQWVSQISGDGIYTNYADAMKGRFTISRDNAKNTLYLQMNSLRDEDTALYYCATGIYPNAFGYWGQGTLVTVSS VL: SYVLTQLSSKNVTLKQPAHITCGGDNIGSKSVHWYQQKLGQAPVLIIYYDSSRPTGIPERFSGANSGNTATLTISGALAEDEADYYCQVWDSSANVFGGGTHLTVL	38.3
PMX013 (antibody, V domains shown, Canine variable regions) VH: ELTLQESGPGLVKPSQTLSLTCVVSGGSVTSSHYWNWIRQRPGRGLEWMGSWTGGTNYNPAFQGRISVTSDTAKNQFSLQLSSLTTEDTAVYYCARGGGYSGTWKDYYVMDYWGHGTSVIVSS VL: SYVLTQLPSKNVTLNQPAHITCGGDNLGSKSVHWYQQKLGQAPVLIIYFDTSRPTGIPERFSGANSGNTATLTISGALAEDEADYYCQVWDSSAKASVFGGGTHLTVL	22.7

The binder PMX020 (antibody, V domains shown, Canine variable regions) VH: EVQLVESGGDLVKPGGSLRISCVASGFTFSSYHMNWVRQAPGKGLQWVAHISSGGTFTSYADAVKGRFTISRDNAKNTLYLQMISLRAEDTAVYYCASGLFLVVGGGNYWGRGTLVTVSS VL: SYVLTQLPSKNVTLKQPAHITCGGDNIGSKSVHWYQQKLGQAPVLIIYSDSSRPTGIPERFSGANSGNTATLTISGALAEDEADYYCQVWDSSASVFGGGTHLTVL showed Kd equal to 0.71
